Molecular target: recombinant SARS-CoV-2 main protease (Mpro) (Severe acute respiratory syndrome coronavirus 2, UniProt P0DTD1)
Construct: the main protease (Mpro; also called 3CLpro) which has an essential role in processing the polyproteins
Assay: biochemical
Details: FRET assay, Mpro 50 nM, substrate 10 μM
assay endpoint: IC50

Recorded results for 2 molecules are shown here.
| molecule | IC50 |
| --- | --- |
| O=C1CCC(N2C(=O)c3cccc(NCCCCCNC(=O)C(NC(=O)[C@@H](c4cccnc4)N(C(=O)c4ccco4)c4ccc5c(c4)oc4ccccc45)c4ccccc4)c3C2=O)C(=O)N1 (mixture of isomers) [TS301F1] | 10000 to 25000 nM |
| Cc1ncsc1-c1ccc(CNC(=O)[C@@H]2C[C@@H](O)CN2C(=O)[C@@H](NC(=O)C2(F)CC2)C(C)(C)C)c(OCCCCCCNC(=O)[C@@H](NC(=O)C(c2cccnc2)N(C(=O)c2ccco2)c2ccc3c(c2)oc2ccccc23)c2ccccc2)c1 (stereo partly drawn) [TS349F1] | < 10000 nM |

// query What value of IC50 has been recorded for this entry: O=C1CCC(N2C(=O)c3cccc(OCCCCNC(=O)c4ccc5cncc(N6C(=O)NC7(CC(c8ccccc8Cl)C7)C6=O)c5c4)c3C2=O)C(=O)N1 (stereo not drawn) [Compound C107780]
// result < 100 nM

// query Report IC50 for O=C1CCC(N2C(=O)c3cccc(OCCCCCCC(=O)Nc4cccn([C@@H](CC5CC5)C(=O)N[C@@H](C[C@@H]5CCNC5=O)C(=O)C(=O)NCc5ccccc5)c4=O)c3C2=O)C(=O)N1 (stereo partly drawn) [BT150] please.
// result < 1000 nM

// query # IC50 lookup, item O=C1CCC(N2C(=O)c3cccc(OCCOCCOCCOCCNC(=O)c4ccc5cncc(N6C(=O)NC7(CC(c8ccccc8Cl)C7)C6=O)c5c4)c3C2=O)C(=O)N1 (stereo not drawn) [Compound C10778S]
// result < 100 nM

// query Quick one: IC50 of O=C1CCC(N2C(=O)c3ccc(N4CCN(CC5CCN(C(=O)[C@H](NC(=O)[C@@H](c6cccnc6)N(C(=O)c6ccco6)c6ccc(-c7ccccc7)cc6)c6ccccc6)CC5)CC4)cc3C2=O)C(=O)N1 (single isomer, unassigned) [TS470] ?
// result < 100 nM
